// provenance: patent US20060148829A1

system: rat organ of Corti explants; assay: Induction of supernumerary hair cells (HCs) in cultured organ of Corti explants; settings: E19 rat organ of Corti explants, 5 days in culture
Outcome measure: Induction of supernumerary HCs (in words)

Cn1cnc2nc(NCCO)nc(NCc3ccccc3)c21 :: no effect
O=C1c2ccccc2-[n+]2ccc3c([nH]c4ccccc43)c21 :: no effect
